- System: HOP-62 NSCLC
- assayNotes: NCI tumour cell line growth inhibition, 48 h
Recorded TGI, one value per entry.

Lab entry: HOP-62 NSCLC assay, compound C=C1C(=O)OC2/C=C(\C)C(O)CC(O)C(C)(O)CC(OC(=O)/C(C)=C/C)C12 (stereo not given) , TGI = > 100 µM

For O=[N+]([O-])c1ccc(NC2OCC(O)C(O)C2O)cc1 (stereo not given) on HOP-62 NSCLC, measured TGI was > 100 µM

Response field TGI (HOP-62 NSCLC) for item Cc1ccc(S(=O)(=O)Oc2ccc3c4c(c(=O)oc3c2)CCCCC4)cc1 : > 100 µM

Value sought: TGI, system HOP-62 NSCLC, item O=C1C(Cl)=C(Nc2ccc3cn[nH]c3c2)C(=O)c2ccccc21 . Result: 5.29 µM

TGI of O=c1ccc2ccccc2o1 , assay on HOP-62 NSCLC, is > 100 µM

---

- Test system: LOX IMVI melanoma
- assayNotes: NCI tumour cell line growth inhibition, 48 h
metric: GI50

The examples below pair each entry with its known result.
COc1cc2c3c(n(CCCN4CCN(C)CC4)c(=O)c2cc1OC)-c1cc2c(cc1C3=O)OCO2 ... 3.81 µM
COc1cc2c3c(n(CCCN)c(=O)c2cc1OC)-c1ccc(F)cc1C3=O ... 0.955 µM

Input CC(=O)OCC1OC(OC2CC3C(C)(C)C(OC(C)=O)CC[C@]3(C)C3CCC45CC4(CC[C@H]5C(C)CC(O)C4OC4(C)C)[C@]23C)C(O)C(O)C1O (some centres undefined) . Output GI50: 1.25 µM

Query CCCCCCCCOc1ccc(/C=N/Nc2cc(C)nc3ccc(Cl)cc23)cc1 yields GI50 of 1.66 µM

---

- Tested on: RXF 393 renal
- assayNotes: NCI tumour cell line growth inhibition, 48 h
Recorded TGI, one value per entry.

Assay RXF 393 renal, sample O=[N+]([O-])c1ccc(NC2OCC(O)C(O)C2O)cc1 (stereo not drawn) , TGI read: > 100 µM

Readout TGI for COC1=CC(=O)C(O)=C(C[C@@]2(C)[C@@H]3CCC[C@H](COC(=O)CCCCCNC(=O)OC(C)(C)C)[C@@]3(C)CC[C@@H]2C)C1=O , test system RXF 393 renal, was > 10 µM

The measured TGI that Nc1c(C(=O)c2cccc(OCCN3CCOCC3)c2)cnn1-c1ccc(F)cc1 showed for RXF 393 renal is > 25 µM

---

- Tested on: SK-MEL-5 melanoma
- assayNotes: NCI tumour cell line growth inhibition, 48 h
# key: entry, value: TGI

COc1ccc(-c2cc(-c3ccc(Nc4ccnc5cc(C(F)(F)F)ccc45)cc3)[nH]c(=O)c2C#N)c2ccccc12 ... > 100 µM
Cc1ccc(S(=O)(=O)Oc2ccc3c4c(c(=O)oc3c2)CCCCC4)cc1 ... > 100 µM
COC1(OC)N=C(N)C2(C#N)C(C)CC(=O)N(N(C)C)C12C#N (stereo not drawn) ... > 100 µM
N#C/C(=C/c1cccnc1)C(=O)c1ccccc1 ... > 100 µM
CC1C=C(OC(=O)c2ccccc2)C(=O)C(n2cc(F)c(=O)n(C(=O)c3ccccc3)c2=O)O1 (stereo not drawn) ... > 100 µM
Cn1cc2c(n1)c(N/N=C/c1ccccc1)nn1nnnc21 ... > 100 µM
Cc1nc2c(nc1C)-c1c(c3c(n1Cc1ccccc1)C(=O)CCC3)C(=O)C2=O ... 24.6 µM
C=C(C)C1Cc2c(cc(O)c3c(=O)c4ccccc4n(C)c23)O1 (stereo not drawn) ... > 100 µM
CCOC(=O)CCC(NC(=O)c1ccc(CNc2nc3cc(N)cc(N)c3nc2-c2ccccc2)cc1)C(=O)OCC (stereo not drawn) ... > 100 µM
N[C@@H]1c2c(Br)sc(Br)c2[C@H](O)[C@@H]1O ... > 100 µM

// sample COC(=O)C1OC(O[C@H]2CC[C@]3(C)[C@H]4CC=C5[C@@H]6CC(C)(C)CC[C@]6(C(=O)OC)[C@H](O)C[C@@]5(C)[C@]4(C)CC[C@H]3C2(C)C)C(O)C(O)C1O (stereo partly drawn) , its TGI was 26.2 µM

Sure, the documented TGI for COC(=O)C1=NN2c3ccccc3C(=O)OCCC2C1 (stereo not drawn) is > 100 µM

For this molecule ( c1ccc2nc3[nH]c4ccccc4c3cc2c1 ), measured TGI is 2.01 µM

---

- Tested on: CCRF-CEM leukemia
- assayNotes: NCI tumour cell line growth inhibition, 48 h
metric: TGI

For orientation, consider the following solved cases.
C=C(C)C1Cc2c(cc(O)c3c(=O)c4ccccc4n(C)c23)O1 (centres undefined) ... > 100 µM
COc1cccc(/C=C/C(=O)c2ccc(Cl)cc2Cl)c1OC ... 26.9 µM
Oc1[nH]c2ccccc2c1N=NC1=NCCCCN1 ... > 100 µM

With CCRF-CEM leukemia as the test system, CCc1cccc(C(C)C)c1NC(=O)C(=O)C(C(=O)C(=O)OC)c1nc2ccccc2[nH]c1=O (centres undefined) showed TGI of > 100 µM

Assay CCRF-CEM leukemia, sample NC(=O)c1[nH]nc(C2OC(CO)C(O)C2O)c1O (centres undefined) , TGI read: 2360 µM

For the compound O=C1CC2CCCCC2=C1O (centres undefined) , the measured TGI on CCRF-CEM leukemia was > 100 µM

Lab note: compound COC(=O)[C@H]1[C@H](C(=O)OC)[C@@H](C)c2c(ccc3c2[nH]c2ccccc23)[C@@H]1C tested on CCRF-CEM leukemia; recorded TGI was > 100 µM

# TGI measured on CCRF-CEM leukemia for item OC1C(O)C(O)C(O)C(O)C1O (centres undefined) = 144 µM

The compound COC(=O)C1=NN2c3ccccc3C(=O)OCCC2C1 (centres undefined) on CCRF-CEM leukemia: TGI was > 100 µM

Record O=C1CC(Br)c2c(Cl)sc(Cl)c21 (centres undefined) has CCRF-CEM leukemia TGI equal to 2.15 µM

GET /values?item= N#C/C(=C/c1cccnc1)C(=O)c1ccccc1 &system= CCRF-CEM leukemia returns TGI: > 100 µM

Measured TGI for this entry O=c1cccc(C#Cc2ccccc2)o1 on CCRF-CEM leukemia: > 44 µM

So the reported TGI for FC(F)(F)c1ccc(C=NC23CC4CC(CC(C4)C2)C3)cc1 , on CCRF-CEM leukemia, turned out to be > 100 µM

Query Cc1ccc(S(=O)(=O)N2CCSCCSCCN(S(=O)(=O)c3ccc(C)cc3)CCN(S(=O)(=O)c3ccc(C)cc3)CC2)cc1 on CCRF-CEM leukemia; TGI returned: > 100 µM

Measured on CCRF-CEM leukemia, CCC(=O)OCc1ccc2oc(=O)c(C(=O)Oc3cncc(Cl)c3)cc2c1 has a documented TGI of 24.8 µM

Bench note, CCRF-CEM leukemia: Cn1c(N2CCCC2)c(C=O)c(=O)n(C)c1=O , TGI reads > 100 µM

# value of TGI, CCRF-CEM leukemia, item CN(C)CCNCc1c2ccccc2c(CNCCN(C)C)c2ccccc12 = 88.8 µM

Observed TGI on CCRF-CEM leukemia, entry NC1=NC(c2ccccc2)N=C(Nc2ccccc2)N1 (centres undefined) , equals > 100 µM

Simply: O=C1/C(=C/c2ccccc2)SC(=Nc2ccccc2)N1Nc1ccccc1 , CCRF-CEM leukemia, TGI = > 100 µM

# TGI measured on CCRF-CEM leukemia for item Nc1ccc(C#Cc2cncnc2Nc2ccc(OCc3cccc(F)c3)c(Cl)c2)cc1 = > 25 µM

Summary line: C[C@@]12CC[C@H]3[C@@H]4CCC(=O)N[C@@]4(C)CC[C@@H]3[C@@]1(C)CC[C@H](OC(=O)Cc1ccc(N(CCCl)CCCl)cc1)C2 , CCRF-CEM leukemia, reported TGI = 35.1 µM

Summary: COc1cc2c3c(n(CCCN4CCN(C)CC4)c(=O)c2cc1OC)-c1cc2c(cc1C3=O)OCO2 , CCRF-CEM leukemia, TGI = 17.7 µM

For NC(=O)c1csc(C2C=CC(CO)O2)n1 (centres undefined) on CCRF-CEM leukemia, measured TGI was > 100 µM

---

Below: a set of entries, each annotated with reported TGI.
- System: U251 CNS
- assayNotes: NCI tumour cell line growth inhibition, 48 h

These solved cases illustrate the format of a correct answer.
Oc1ccc2c(c1)OCC(O)(c1ccccc1O)C2 (stereo not given) ... > 100 µM
COc1ccc(C2NCCc3c2[nH]c2ccccc32)cc1CN1CCN(c2ccc(F)cc2)CC1 (stereo not given) ... 2.93 µM
CC[N+](CC)=c1ccc2nc3c(cc(NCc4ccccc4)c4ccccc43)oc-2c1 ... 0.962 µM
COc1cc(/C=C2\N=C(c3ccccc3)N(C3Nc4cc5c(cc4S3)NC(N3C(=O)/C(=C/c4cc(OC)c(OC)c(OC)c4)N=C3c3ccccc3)S5)C2=O)cc(OC)c1OC (stereo not given) ... > 100 µM

# value of TGI, U251 CNS, item COC(=O)c1c2c(c(C)[n+]([O-])c1C)C(=O)C=C(NCc1cccc(OC)c1)C2=O = 2.08 µM

Lab entry: U251 CNS assay, compound COc1cc2cc(Oc3ccc(NC(=O)Nc4ccccc4)cc3)c(C)nc2cc1OCCN1CCCCC1 , TGI = 11.4 µM

GET /values?item= C=CCNC1=C(C(=O)OCC)C(=O)CO1 &system= U251 CNS returns TGI: > 100 µM

The compound N#C/C(=C\c1ccc(Br)cc1)n1nnc2cccc(F)c21 , when measured on U251 CNS, yielded TGI of 3.06 µM

Bench note, U251 CNS: N/N=C1\c2ccccc2C2/C(=N\N)c3ccccc3C12 (stereo not given) , TGI reads > 100 µM
